experimental_system: xanthine oxidase (Rattus norvegicus)
Construct: administered orally to seven-week-old male Wistar rats (4 rats per group); from tissue; host or cells: whole animal (male Wistar rats); the enzyme is endogenous and was not isolated
Sequence (P22985 whole entry): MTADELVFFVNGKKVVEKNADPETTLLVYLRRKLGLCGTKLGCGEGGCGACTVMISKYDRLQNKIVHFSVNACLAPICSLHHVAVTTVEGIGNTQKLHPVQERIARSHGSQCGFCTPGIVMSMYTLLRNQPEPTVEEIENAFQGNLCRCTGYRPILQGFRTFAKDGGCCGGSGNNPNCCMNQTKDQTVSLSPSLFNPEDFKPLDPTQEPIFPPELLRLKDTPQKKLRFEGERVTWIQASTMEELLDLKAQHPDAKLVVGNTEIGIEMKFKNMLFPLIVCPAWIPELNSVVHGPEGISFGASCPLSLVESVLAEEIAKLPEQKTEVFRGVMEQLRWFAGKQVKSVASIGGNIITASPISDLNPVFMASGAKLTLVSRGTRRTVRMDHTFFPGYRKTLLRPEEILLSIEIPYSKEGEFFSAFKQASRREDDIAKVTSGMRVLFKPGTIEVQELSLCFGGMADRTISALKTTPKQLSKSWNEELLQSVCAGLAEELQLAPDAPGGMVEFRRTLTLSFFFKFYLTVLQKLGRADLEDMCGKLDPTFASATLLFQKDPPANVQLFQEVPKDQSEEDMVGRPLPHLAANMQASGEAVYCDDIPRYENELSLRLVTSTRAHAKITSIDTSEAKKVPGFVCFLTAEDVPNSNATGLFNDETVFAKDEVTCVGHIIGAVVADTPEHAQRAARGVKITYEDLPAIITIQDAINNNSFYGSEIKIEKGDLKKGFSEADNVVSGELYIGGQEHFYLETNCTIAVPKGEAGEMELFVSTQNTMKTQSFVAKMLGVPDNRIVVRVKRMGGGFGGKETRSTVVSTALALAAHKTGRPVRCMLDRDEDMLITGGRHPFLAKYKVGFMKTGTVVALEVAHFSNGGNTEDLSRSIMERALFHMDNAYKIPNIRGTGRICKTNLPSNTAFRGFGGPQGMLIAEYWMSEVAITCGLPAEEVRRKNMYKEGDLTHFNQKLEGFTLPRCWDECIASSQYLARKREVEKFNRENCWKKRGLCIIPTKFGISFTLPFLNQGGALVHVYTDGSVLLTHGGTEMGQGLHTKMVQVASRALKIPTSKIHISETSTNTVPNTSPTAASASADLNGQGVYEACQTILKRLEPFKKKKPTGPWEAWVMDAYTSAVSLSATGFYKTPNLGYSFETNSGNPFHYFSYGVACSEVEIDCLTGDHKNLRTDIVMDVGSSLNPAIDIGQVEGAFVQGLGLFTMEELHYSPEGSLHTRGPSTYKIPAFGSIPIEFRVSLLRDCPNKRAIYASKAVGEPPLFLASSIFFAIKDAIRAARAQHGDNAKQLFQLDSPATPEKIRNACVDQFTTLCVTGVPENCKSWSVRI
experiment_summary: Effect of lowering serum uric acid level in vivo (oral, Wistar rats)
test_parameters: male Wistar rats, 0.3 mg/5 ml/kg in 0.5% methylcellulose, blood collected 6 hours after administration
Recorded Reduction rate of serum uric acid level for the following compounds

substance_smiles	experimental_system	Reduction rate of serum uric acid level, %
CCCCOc1ccc(-c2n[nH]c(-c3ccncc3)n2)cc1[N+](=O)[O-]	xanthine oxidase (Rattus norvegicus)	41.2
Cc1cc(-c2nc(-c3ccc(OCOCc4ccccc4)c([N+](=O)[O-])c3)n[nH]2)ccn1	xanthine oxidase (Rattus norvegicus)	41.6
COCCOc1ccc(-c2nc(-c3ccnc(C)c3)n[nH]2)cc1C#N	xanthine oxidase (Rattus norvegicus)	36.5
Cc1cc(-c2nc(-c3ccc(Sc4ccccc4)c([N+](=O)[O-])c3)n[nH]2)ccn1	xanthine oxidase (Rattus norvegicus)	40.6
Cc1cc(-c2n[nH]c(-c3ccc(OCC4CC4)c(C#N)c3)n2)ccn1	xanthine oxidase (Rattus norvegicus)	32.6

Data credit: patent US7074816B2
